# Tested System: human GPR84 receptor (Homo sapiens)
# Construct: frozen aliquots prepared by acCELLerate
# Sequence (Q9NQS5 whole entry): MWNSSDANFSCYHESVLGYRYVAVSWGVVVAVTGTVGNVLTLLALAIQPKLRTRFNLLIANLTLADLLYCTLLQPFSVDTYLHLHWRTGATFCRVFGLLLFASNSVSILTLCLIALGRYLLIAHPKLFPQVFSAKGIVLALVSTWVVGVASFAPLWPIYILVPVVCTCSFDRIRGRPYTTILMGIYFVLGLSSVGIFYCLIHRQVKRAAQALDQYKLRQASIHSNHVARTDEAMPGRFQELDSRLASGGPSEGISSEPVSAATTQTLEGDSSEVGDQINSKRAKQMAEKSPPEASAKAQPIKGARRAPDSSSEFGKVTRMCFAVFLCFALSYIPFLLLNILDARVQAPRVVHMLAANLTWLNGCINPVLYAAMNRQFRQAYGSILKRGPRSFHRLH
# Assay: cAMP HTRF assay for identification of cellular GPR84 antagonists
# Settings: CHO-K1 cells stably expressing human GPR84; Forskolin + agonist 6-OAU (EC80); average or median values
IC50 strictly under 60 nM means true; at 60 nM or over means false.

These solved cases illustrate the format of a correct answer.
[[record]]
compound = "O=C(NCCc1cnccn1)c1oc2c(c1C(F)(F)F)-c1nn(C[C@H]3COCCO3)cc1CC2"
group_label = "false"

[[record]]
compound = "CCc1ccc(Cn2cc3c(n2)-c2c(oc(C(=O)NC[C@@H]4COCCO4)c2C)CC3)cn1"
group_label = "true"

[[record]]
compound = "C[C@@H]1Cc2oc(C(=O)NC[C@@H]3COCCO3)c(C(F)(F)F)c2-c2nn(CC3CCN(C(=O)C4CC4)CC3)cc21 (single isomer, unassigned)"
group_label = "true"

[[record]]
compound = "Cc1ccc(Cn2cc3c(n2)-c2c(oc(C(=O)NC[C@@H]4CCCO4)c2C(F)(F)F)CC3C)nc1 (mixture of isomers)"
group_label = "true"

[[record]]
compound = "CC1Cc2oc(C(=O)NC[C@@H]3COCCO3)c(C(F)(F)F)c2-c2nn(Cc3ccccn3)cc21 (mixture of isomers)"
group_label = "true"


Is the reported IC50 for Cc1ccc(Cn2cc3c(n2)-c2c(oc(C(=O)NC[C@@H]4COCCO4)c2C)CC32CC2)cn1 strictly below 60 nM?
true

Quick check: IC50 of Cc1c(C(=O)NCC2CCCO2)oc2c1-c1nn(CC3COc4ncccc4O3)cc1CC2 (single isomer, unassigned) [Example 52-1] under 60 nM?
false

Would you kindly verify if IC50 of Cc1c(C(=O)NC[C@@H]2COCCO2)oc2c1-c1nn(CCN3CCNCC3)cc1CC2 is strictly less than 60 nM?
false

Strictly below 60 nM: is that where IC50 of Cc1c(C(=O)NC[C@H]2CCCO2)oc2c1-c1nn(C[C@@H]3COc4ncccc4O3)cc1CC2 (racemic) sits?
true

Say whether its IC50 is strictly beneath 60 nM. Entry: Cc1cccc(Cn2cc3c(n2)-c2c(oc(C(=O)NCC4CCCO4)c2C)CC3)n1 (racemic) [Example 66]
false

API: query returns whether the compound falls strictly under 60 nM in IC50. Query: Cc1c(C(=O)NC[C@@H]2CCCO2)oc2c1-c1nn(CC3CNC3)cc1CC2
false

Strictly below 60 nM in IC50? O=C(NCCc1c[nH]cn1)c1oc2c(c1C(F)(F)F)-c1nn(C[C@H]3COCCO3)cc1CC2
false

Find out if reported IC50 for Cc1c(C(=O)NCc2ccon2)oc2c1-c1nn(CC3COc4ncccc4O3)cc1CC2 (single isomer, unassigned) [Example 55-2] is less than 60 nM
true

Please determine if O=C(NC[C@@H]1COCCO1)c1oc2c(c1C(F)(F)F)-c1nn(CC3CC3)cc1CC2 is below 60 nM in terms of IC50.
true

Numbers sourced from patent US12570666B2.
